B1: Chromodomain-helicase-DNA-binding protein 4, residues 365 to 417; numbered along this chain, Q14839 (parent)
chain: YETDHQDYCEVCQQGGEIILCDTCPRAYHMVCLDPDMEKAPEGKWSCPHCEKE

# Variants of: B1
# ASSAY NAME: abundance fitness (aPCA) (normalised: wild type 0, dead -1); higher = more abundant; growth selection in yeast, the domain comes from the species named
# RECORDED CONDITIONS: Homo sapiens
MEASUREMENT NAME: abundance fitness
Format: numeric value only, no unit, no commentary.

S46N: 0.039

# variant M30W ; its abundance fitness = -0.119

# variant I18Y ; its abundance fitness = -0.231

# variant Y8D ; its abundance fitness = -0.269

# variant A40D ; its abundance fitness = 0.016

# variant E2K ; its abundance fitness = 0.077

# variant K39V ; its abundance fitness = 0.1

# variant K39M ; its abundance fitness = 0.115

# variant K39N ; its abundance fitness = -0.264

# variant C12Q ; its abundance fitness = -0.49

# variant T3K ; its abundance fitness = 0.205

# variant D36H ; its abundance fitness = 0.161

# variant K52V ; its abundance fitness = -0.176

# variant Q13A ; its abundance fitness = 0.206

# variant P48R ; its abundance fitness = 0.063

# variant D7G ; its abundance fitness = 0

# variant E2I ; its abundance fitness = 0.176

# variant C9E ; its abundance fitness = -0.943

# variant C9L ; its abundance fitness = -0.717
